Assay: change in splice reporter luminescence, either direction, cell-based, HEK293, spliceosome inhibition project, primary screen (AID 1101);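 further: HEK293 cells carrying a splicing-competent luciferase reporter gene; test concentration not given here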
Settings: HEK293 splicing luciferase reporter, 24 h, higher = more signal, called active from +8 up or from −8 down
Grouping rule (z-score): interval 1 (below -0.7), interval 2 (-0.7 to below 0.1), interval 3 (0.1 or more)

Exercise: Please report the category associated with COc1ccc([Si](C)(C)[C@H]2[C@H](CC(=O)N3Cc4ccccc4C[C@H]3CO)O[C@@]3(C(=O)N(Cc4ccc(N5CCOC5=O)cc4)c4ccccc43)[C@@H]2C)cc1 , nothing else.
Key: interval 1

Exercise: Please report the category associated with COCCOC(=O)N1C(=O)[C@@]2(c3cc(C#CC4=CCCCC4)ccc31)[C@H](c1ccccc1OCCO)N1[C@H](c3ccccc3)[C@H](c3ccccc3)OC(=O)[C@H]1[C@@H]2C(=O)NC[C@H](O)c1ccccc1 , nothing else.
Key: interval 1

Exercise: Please report the category associated with CC(C)C(CO)N1C(=O)[C@@H]2C3C(=O)OCCC/C=C\[C@H]3OC23C=CCN(Cn2nnc4ccccc42)C(=O)[C@@H]13 (some centres not stated) , nothing else.
Key: interval 3

Exercise: Please report the category associated with CCCNC(=O)[C@@]1(C)c2ccccc2C(=O)N(c2ccc(C)cn2)[C@H]1c1ccc(CO)cc1 , nothing else.
Key: interval 3

Exercise: Please report the category associated with COc1ccc([Si](C)(C)[C@H]2[C@H](CC(=O)N(CCO)Cc3ccccc3)O[C@@]3(C(=O)N(C)c4c(Br)cc(C)cc43)[C@@H]2C)cc1 , nothing else.
Key: interval 1

Exercise: Please report the category associated with C=CCOC(=O)[C@@]1(Cc2ccccc2)C[C@H]2CO[C@H](c3ccc(OC)cc3)N2C1=O , nothing else.
Key: interval 2

Exercise: Please report the category associated with [N-]=[N+]=Nc1ccccc1C[C@]1(C(=O)NCCN2CCOCC2)COC(c2ccc(OCCCO)cc2)=N1 , nothing else.
Key: interval 2

Exercise: Please report the category associated with COC(=O)C(CC#Cc1ccc2c(c1)[C@]1(C(=O)N2)[C@H](c2ccc(O)cc2)N2[C@H](c3ccccc3)[C@H](c3ccccc3)OC(=O)[C@H]2[C@@H]1C(=O)NC[C@H](O)c1ccccc1)C(=O)OC , nothing else.
Key: interval 2

Exercise: Please report the category associated with O=C1O[C@@H](c2ccccc2)[C@@H](c2ccccc2)N2[C@@H](c3ccc(O)cc3)[C@]3(C(=O)Nc4ccc(C#CCCO)cc43)[C@@H](C(=O)N3CCN(c4ncccn4)CC3)[C@H]12 , nothing else.
Key: interval 2

Exercise: Please report the category associated with O=C1C2C=CC(C(O)C3CC=CCC3)N(Nc3ccccc3)C2C(=O)N1c1ccccc1 (configuration not stated) , nothing else.
Key: interval 2

Could you now consider this next compound?
Exercise: Please report the category associated with COCCOC(=O)N1C(=O)[C@@]2(c3ccccc31)[C@H](c1ccc(O)cc1)N1[C@H](c3ccccc3)[C@H](c3ccccc3)OC(=O)[C@H]1[C@@H]2C(=O)N1CCN(c2ncccn2)CC1 , nothing else.
Key: interval 2

---

Recorded composite z-score values for a group of compounds are listed next.
Assay: binders from COS7 lysate, DM2A8 probe, primary screen, torsin A project, cell lysate, small-molecule microarray, fluorescence 635/667 (AID 1065)
Conditions: higher = more signal, COS7 lysate expressing mutant human TOR1A
Write no unit; give the number alone.

Example entries begin here.
Exercise: Given the compound COC(=O)[C@@H]1N=C(c2ccc(OCCCO)cc2)O[C@@H]1C , write its reported composite z-score.
Key: 0.331

Exercise: Given the compound COC(=O)c1c(CC[C@@H](CO)NC(=O)N2CCC[C@H]2Cn2cc(C3(O)CCCCC3)nn2)oc(C(C)=O)c1C(=O)OC , write its reported composite z-score.
Key: 0.831

Further cases:
Exercise: Given the compound NC(=O)[C@H]1[C@@H]2C(=O)O[C@@H](c3ccccc3)[C@@H](c3ccccc3)N2[C@@H](c2ccc(OCCO)cc2)[C@]12C(=O)Nc1ccc(C#CCCO)cc12 , write its reported composite z-score.
Key: 0.685

Exercise: Given the compound O=C(C1N=C(c2ccc(OCCCO)cc2)N(c2ccccc2)O1)N1CCCCC1 (stereo not drawn) , write its reported composite z-score.
Key: 1.49

Exercise: Given the compound O=C1OCCC/C=C\[C@H]2OC34C=CCN(c5ccc6ccccc6c5)C(=O)[C@H]3N(CCO)C(=O)[C@@H]4C12 (stereo partly drawn) , write its reported composite z-score.
Key: -0.514

Exercise: Given the compound CCOC(=O)C=Cc1cccc(C)c1O , write its reported composite z-score.
Key: -0.232

Exercise: Given the compound CCCCN1CC=CC23O[C@@H]4/C=C\CCCOC(=O)C4[C@H]2C(=O)N(CCO)[C@@H]3C1=O (stereo partly drawn) , write its reported composite z-score.
Key: -1.37

Exercise: Given the compound CCCCC(CC)C(O)C1C=CC2C(=O)N(c3ccccc3)C(=O)C2N1Nc1ccc(C#N)cc1 (stereo not drawn) , write its reported composite z-score.
Key: 0.468

---

Assay: probe aCHRDL2 binding to arrayed compounds – biochemical, biotinylated probe, 635/667 nm fluorescence, primary screen (AID 1100)
Settings: small-molecule microarray, higher = more signal
Grouping rule (composite z-score): lo = under 0.2, mid = from 0.2 up to 0.8, hi = 0.8 and over

Worked cases, answers included:
Exercise: Please report the category associated with C=CCN1C(=O)[C@]2(CCC(=O)OC(C)(C)C)N=C(c3ccc(OCCCO)cc3)O[C@@H]2c2ccccc21 , nothing else.
Key: hi

Exercise: Please report the category associated with CC(C)(C)OC(=O)COc1cccc(C(=O)CCN2CCOCC2)c1 , nothing else.
Key: hi

Exercise: Please report the category associated with O=C1C[C@]2(c3ccc([N+](=O)[O-])cc3)C(=O)N(C3CC3)c3cc(CO)ccc3[C@H]2N1CC12CC3CC(CC(C3)C1)C2 , nothing else.
Key: mid

Exercise: Please report the category associated with [N-]=[N+]=Nc1ccccc1C[C@@]1(C(=O)N2CCOCC2)N=C(c2ccc(OCCCO)cc2)O[C@@H]1c1ccccc1 , nothing else.
Key: mid

Exercise: Please report the category associated with C#CCN(Cc1ccccc1Br)[C@H](/C=C/c1ccccc1)[C@@H](O)Cc1ccccc1 , nothing else.
Key: hi

Exercise: Please report the category associated with COC(=O)[C@@]1(Cc2ccc(F)cc2)[C@H]2c3cc(C(=O)N(C)C)n(Cc4ccc(OC(F)(F)F)cc4)c3C[C@H]2CN1C(=O)c1ccccc1 , nothing else.
Key: lo

Exercise: Please report the category associated with C=C[C@@H](OC)[C@H](OC(=O)Nc1ccc(OC)cc1)c1ccc(O)c(F)c1 , nothing else.
Key: lo

Exercise: Please report the category associated with COc1cc2c(cc1O)C=[N+](Cc1sc3ccccc3c1Cl)CC2 , nothing else.
Key: mid

Exercise: Please report the category associated with Oc1ccc2cc[n+](Cc3cc4c(cc3Br)OCO4)cc2c1 , nothing else.
Key: mid

Exercise: Please report the category associated with CCOC(=O)C=Cc1cccc(C)c1O , nothing else.
Key: lo

Further cases:
Exercise: Please report the category associated with [N-]=[N+]=NCc1ccccc1C[C@@]1(C(N)=O)N=C(c2ccc(OCCCO)cc2)O[C@@H]1c1ccccc1 , nothing else.
Key: hi

Exercise: Please report the category associated with O=C(Cc1ccccc1)[C@H]1C2C=CCCC(c3ccccc3)=C2CN1Cc1ccccc1 (stereo partly specified) , nothing else.
Key: lo

Exercise: Please report the category associated with CC(C)N1CC=CC23O[C@@H]4C=CCCOC(=O)C4[C@H]2C(=O)N(CCCO)[C@@H]3C1=O (stereo partly specified) , nothing else.
Key: lo

---

Experiment: probe aInhba binding on compound microarray – biochemical, small-molecule microarray, 635/667 nm fluorescence, primary screen (AID 1148);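 further: score merges 667nm spot fluorescence with signal-to-noise for antibody binding to printed compounds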
Conditions: higher = more signal
Answer Not fulfilled if composite z-score is under 0.06, and Fulfilled if it is 0.06 or more.

Worked cases, answers included:
Exercise: Hi, just wondering whether CC(CO)N1C(=O)[C@@H]2[C@H]3C(=O)OCC=C[C@H]3OC23C=CCN(Cn2nnc4ccccc42)C(=O)[C@@H]13 (some centres not stated) shows composite z-score of 0.06 or higher.
Key: Not fulfilled

Exercise: Hi, just wondering whether O=C1N(CCS(=O)(=O)c2ccccc2)c2ccccc2[C@H]2OC(c3ccc(OCCCO)cc3)=N[C@@]12Cc1ccccc1 shows composite z-score of 0.06 or higher.
Key: Fulfilled

Exercise: Hi, just wondering whether CCCC[C@@H](O)C1=C(COc2ccccc2)C[C@H]2C(=O)N(Cc3ccccc3)C(=O)[C@H]2[C@H]1CO shows composite z-score of 0.06 or higher.
Key: Not fulfilled

Exercise: Hi, just wondering whether COC(=O)[C@@]1(Cc2ccc(OC)cc2)[C@H]2c3cc(C(=O)N(C)C)n(Cc4ccc(C)o4)c3C[C@H]2CN1C(=O)c1ccccc1 shows composite z-score of 0.06 or higher.
Key: Fulfilled

Exercise: Hi, just wondering whether C#Cc1cc2ccccc2oc1=O shows composite z-score of 0.06 or higher.
Key: Not fulfilled

Further cases:
Exercise: Hi, just wondering whether CCOC(=O)C[C@H]1[C@H](OC(=O)c2ccc(C(=O)c3ccccc3)cc2)[C@@H](NC(=O)c2ccc(-c3ccccc3)cc2)c2cc(OCCCO)ccc2N1C(=O)Cc1ccc(OC)cc1 shows composite z-score of 0.06 or higher.
Key: Not fulfilled

Exercise: Hi, just wondering whether NCCCCCCNC(=O)[C@@H]1C[C@@H]2C(=O)N[C@@H](CCCCN)C(=O)N2[C@@H]1c1ccc(O)cc1 shows composite z-score of 0.06 or higher.
Key: Not fulfilled
